The reader will find reported viscosity values listed item by item below.
- test: wn = mass fraction of the nth substance listed
- condition: 323.15 K; 101 kPa; Liquid; Concentric cylinders viscometry; w1 = 0.05

compound	viscosity [mPa·s]
OCCNCCO [diethanolamine] + O	0.653
CC(O)CN(CC(C)O)CC(C)O (centres undefined) [triisopropanolamine] + O	0.6696
CC(O)CNCC(C)O (centres undefined) [N-(2-hydroxypropyl)-2-hydroxy-1-propanamine] + O	0.6884
CC(O)CN (centres undefined) [1-amino-2-propanol] + O	0.6617

* * *

- test: refractive index (Na D-line) (dimensionless); wn = mass fraction of the nth substance listed
- condition: 343.15 K; 101 kPa; Liquid; Standard Abbe refractometry; w1 = 0.2

compound	refractive index
OCCNCCO [diethanolamine] + O	1.35356
CC(O)CN(CC(C)O)CC(C)O (centres undefined) [triisopropanolamine] + O	1.35319
CC(O)CN (centres undefined) [1-amino-2-propanol] + O	1.34968
CC(O)CNCC(C)O (centres undefined) [N-(2-hydroxypropyl)-2-hydroxy-1-propanamine] + O	1.35253
